Experiment: MTT cytotoxicity assay on HT-1080 tumor cells, 72 h
Type: cell-based, human
Details: human, HT-1080 fibrosarcoma cells, MTT, 72 h; ne = no effect in the tested concentration (up to 100 μg/mL); read-out: Cytotoxicity IC50, HT-1080
Protocol: Tumor cell lines HT-1080 (human connective tissue fibrosarcoma) and MH-22A (mouse hepatocarcinoma) were used. All of the cells were obtained from the American Type Culture Collection ((ATCC,) Rockville, MD, USA). […] Cell viability was measured using 3-(4,5-dimethylthiazol-2-yl)-2,5-diphenyl-tetrazolium bromide (MTT) assay. […] The samples were tested at 540 nm on a Tecan multiplate reader Infinite1000 (Tecan Austria GmbH, Salzburg, Austria). The IC50 was calculated using the program Graph Pad Prism® 3.0.
IC50 at 72 h values by entry
Value Type: IC50 at 72 h (µM)

>>> assay_value("C#CCN1C(C)=C(C(=O)OCC)C(c2ccc[n+](CCCCCC)c2)C(C(=O)OCC)=C1C")
5
>>> assay_value("CCCCCCCCCCCC[n+]1cccc(C2C(C(=O)OCC)=C(C)NC(C)=C2C(=O)OCC)c1")
37
>>> assay_value("CCCCCC[n+]1cccc(C2C(C(=O)OCC)=C(C)NC(C)=C2C(=O)OCC)c1")
26
>>> assay_value("C#CCOC(=O)C1=C(C)NC(C)=C(C(=O)OCC#C)C1c1ccc[n+](CCCCCC)c1")
76

====

tested on: MH-22A (mouse hepatocarcinoma) cells; assay: MTT cytotoxicity assay on MH-22A tumor cells, 72 h; assay type: cell-based; details: MTT, 72 h; ne = no effect in the tested concentration (up to 100 μg/mL)
IC50 values by entry
Value Type: IC50

>>> assay_value("C#CCOC(=O)C1=C(C)NC(C)=C(C(=O)OCC#C)C1c1ccc[n+](CCCCCCCCCCCC)c1")
"1000 nM"
>>> assay_value("C#CCN1C(C)=C(C(=O)OCC)C(c2ccc[n+](CCCCCCCCCCCC)c2)C(C(=O)OCC)=C1C")
"1000 nM"

====

Test: Self-assembling properties by dynamic light scattering (DLS)
Type: physicochemical
Conditions: two weeks after the first set; samples stored at r.t.
Procedure: Samples of compounds for dynamic light scattering (DLS) studies were prepared by thin-film hydration method in an aqueous solution at a concentration of 0.5 mg/mL for compounds 1–7, 0.25 mg/mL for compounds 8–10, and 0.1 mg/mL for compound 11. A corresponding amount of compounds was weighted in a round-bottom flask and dissolved in chloroform; then, the organic solvent was removed in vacuo, and the residue was dried in high vacuo for 1 h. […]
PDI ± SD, 2 Set values by entry
Value Type: PDI ± SD, 2 Set

>>> assay_value("C#CCOC(=O)C1=C(C)NC(C)=C(C(=O)OCC#C)C1c1ccc[n+](CC)c1")
0.73
>>> assay_value("C#CCN1C(C)=C(C(=O)OCC)C(c2ccc[n+](CCCCCC)c2)C(C(=O)OCC)=C1C")
0.59
>>> assay_value("CCCCCC[n+]1cccc(C2C(C(=O)OCC)=C(C)NC(C)=C2C(=O)OCC)c1")
0.91
>>> assay_value("C#CCOC(=O)C1=C(C)NC(C)=C(C(=O)OCC#C)C1c1ccc[n+](CCCCCC)c1")
0.45

====

system: Proteus mirabilis; assay: Toxicity screen, serial dilution-spot test; type: cell-based; conditions: gram negative; 24 h exposure in DI water, 28 °C; 0.0001 = no colonies at 0.001 mM;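 also: last dilution that did not fully inhibit growth with colonies still present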
I'd appreciate it if you marked entries yes when Boundary concentration, P. mirabilis is lower than 0.01 mM and no when it is not.

>>> class_label("C#CCN1C(C)=C(C(=O)OCC)C(c2ccc[n+](CCCCCCCCCCCC)c2)C(C(=O)OCC)=C1C")
"no"
>>> class_label("C#CCN1C(C)=C(C(=O)OCC)C(c2ccc[n+](CCCCCCCCCCCCCCCC)c2)C(C(=O)OCC)=C1C")
"yes"
>>> class_label("CCCCCCCCCCCC[n+]1cccc(C2C(C(=O)OCC)=C(C)NC(C)=C2C(=O)OCC)c1")
"yes"
>>> class_label("C#CCOC(=O)C1=C(C)NC(C)=C(C(=O)OCC#C)C1c1ccc[n+](CC)c1")
"no"
